Source: patent US20250333523A1

Listed here: items and their measured Kd.
# System name: T1, Avi/His-HuIL18BPa (recombinant human IL-18BP isoform A with Avi and poly-His tags) (human, biotinylated with BirA on the Avi tag in some assays)
# T1 construct: also called human IL-18BP-Avi-His
# T1 chain: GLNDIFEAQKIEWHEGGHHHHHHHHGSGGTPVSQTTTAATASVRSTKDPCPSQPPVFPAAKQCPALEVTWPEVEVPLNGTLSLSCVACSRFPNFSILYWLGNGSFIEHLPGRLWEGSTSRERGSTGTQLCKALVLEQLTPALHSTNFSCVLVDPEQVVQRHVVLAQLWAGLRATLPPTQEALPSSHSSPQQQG
# Assay method text: SPR Biacore T200, IgG captured on Protein A/G

Binder: anti-IL-18BP antibody variant BP-04.28 (antibody, V domains shown) VH: QVQLVQSGAEVKKPGASVKVSCKASGYTFTDYDMHWVRQAPGQGLEWMGIISTYYGDVSYAQKFQGRVTMTRDKSTSTVYMELSSLRSEDTAVYYCARSGTYYYGTRESHPLDYWGQGTLVTVSS VL: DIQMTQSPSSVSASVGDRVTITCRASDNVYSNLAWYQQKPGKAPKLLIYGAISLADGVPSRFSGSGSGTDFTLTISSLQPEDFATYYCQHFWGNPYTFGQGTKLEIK
Kd [nM]: 4.7
--
Binder: anti-IL-18BP antibody variant BP-04.25 (antibody, V domains shown) VH: QVQLVQSGAEVKKPGASVKVSCKASGYTFTDYDMHWVRQAPGQGLEWMGIYSTYYGDVSYAQKFQGRVTMTRDKSTSTVYMELSSLRSEDTAVYYCARSGTYNYGTRESHALDYWGQGTLVTVSS VL: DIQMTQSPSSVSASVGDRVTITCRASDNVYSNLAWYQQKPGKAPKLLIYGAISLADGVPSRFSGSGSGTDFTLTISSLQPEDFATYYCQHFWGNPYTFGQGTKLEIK
Kd [nM]: 21
--
Binder: anti-IL-18BP antibody variant BP-04.15 (antibody, V domains shown) VH: QVQLVQSGAEVKKPGASVKVSCKASGYTFTDYDMHWVRQAPGQGLEWMGIISTYYGDVSYAQKFQGRVTMTRDKSTSTVYMELSSLRSEDTAVYYCARSGTYNYGTRESHPLDYWGQGTLVTVSS VL: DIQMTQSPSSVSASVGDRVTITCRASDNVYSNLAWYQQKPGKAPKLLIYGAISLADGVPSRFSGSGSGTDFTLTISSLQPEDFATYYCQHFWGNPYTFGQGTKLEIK
Kd [nM]: 12
